# TARGET_DESC: Histamine H1 receptor (Cavia porcellus) (UniProt P31389)
# Sequence (P31389 whole entry): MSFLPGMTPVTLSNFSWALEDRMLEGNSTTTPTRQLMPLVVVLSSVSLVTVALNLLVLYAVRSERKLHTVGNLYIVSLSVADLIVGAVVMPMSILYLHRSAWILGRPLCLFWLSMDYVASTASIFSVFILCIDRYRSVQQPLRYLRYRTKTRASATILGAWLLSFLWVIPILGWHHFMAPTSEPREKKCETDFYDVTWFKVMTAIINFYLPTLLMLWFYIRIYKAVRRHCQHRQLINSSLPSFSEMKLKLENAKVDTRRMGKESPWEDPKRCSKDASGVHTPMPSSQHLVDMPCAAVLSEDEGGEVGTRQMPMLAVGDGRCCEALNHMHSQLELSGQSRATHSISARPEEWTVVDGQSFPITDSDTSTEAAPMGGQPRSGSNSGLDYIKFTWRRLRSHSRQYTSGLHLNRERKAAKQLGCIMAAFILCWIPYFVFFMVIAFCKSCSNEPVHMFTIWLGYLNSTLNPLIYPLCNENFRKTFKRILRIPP
# TEST: Compound was tested for the displacement of [3H]mepyramine from Histamine H1 receptor by competition binding assay
Response field label: string, one of satisfied (K0.5 strictly below 1 nM) or not satisfied.

molecule=CN(C)CC/C=C1/c2ccccc2COc2ccccc21 label_value=satisfied
molecule="OC(CCCN1CCN(c2ncc(F)cn2)CC1)c1ccc(F)cc1 (configuration not stated)" label_value="not satisfied"
molecule=CN(C)CCOC(c1ccccc1)c1ccccc1 label_value="not satisfied"
molecule=CN(C)CC[C@H](c1ccc(Cl)cc1)c1ccccn1 label_value="not satisfied"
molecule=Cc1ccc(/C(=C\CN2CCCC2)c2ccccn2)cc1 label_value=satisfied
molecule=CN(C)CC[C@@H](c1ccc(Cl)cc1)c1ccccn1 label_value="not satisfied"
molecule="CN(C)C1Cc2cc(Cl)c(O)cc2C(c2ccccc2)C1 (stereo in doubt; 2)" label_value="not satisfied"

---

# Species: Cavia porcellus
# TEST: Compound was tested for the displacement of [3H]mepyramine from Histamine H1 receptor by competition binding assay.
Entry flag: true (1) if K0.5 reaches 70 nM; false (0) if it does not.

compound="CN(C)C1Cc2ccccc2C(c2ccccc2)C1 (stereo in doubt; 1c)" label_value="false (0)"
compound="CCN(CC)C1Cc2ccccc2C(c2ccccc2)C1 (stereo not given)" label_value="false (0)"
compound="CN(C)C1CCc2ccccc2C(c2ccccc2)C1 (stereo in doubt; 10)" label_value="true (1)"
compound="CN(C)C1Cc2ccccc2C(C)(c2ccccc2)C1 (stereo in doubt; 15)" label_value="false (0)"
compound="Cc1ccc(C2CC(N(C)C)Cc3ccccc32)cc1 (stereo not given)" label_value="false (0)"
compound="C[N+](C)(C)C1Cc2ccccc2C(c2ccccc2)C1 (stereo in doubt; 3)" label_value="true (1)"
compound="CN1[C@@H]2CC[C@H]1C[C@@H](OC(=O)C(CO)c1ccccc1)C2 (stereo not given in full)" label_value="true (1)"
compound="CN(C)C1Cc2ccccc2C(c2ccccc2)C1 (stereo in doubt; 1a)" label_value="false (0)"
compound="CN(C)C1Cc2cc(O)c(O)cc2C(c2ccccc2)C1 (stereo in doubt; 13)" label_value="false (0)"

---

# Species: Cavia porcellus
# TEST: Compound was tested for the displacement of [3H]mepyramine from Histamine H1 receptor by competition binding assay.
// K0.5 lookup, one value per entry
MEASURED_METRIC: K0.5 (nM)

compound="CNC1Cc2ccccc2C(c2ccccc2)C1 (centres undefined)" measured_metric=K0.5 unit_of_measure=nM reported_measurement=64
compound="CN(C)C1CCc2ccccc2C1 (centres undefined)" measured_metric=K0.5 unit_of_measure=nM reported_measurement=75
compound=Nc1ccc2c3c(cccc13)-c1ccccc1-2 measured_metric=K0.5 unit_of_measure=nM reported_measurement=4000
compound="Cc1ccccc1C1CC(N(C)C)Cc2ccccc21 (centres undefined)" measured_metric=K0.5 unit_of_measure=nM reported_measurement=12.7

---

# Organism: Cavia porcellus
# TEST: Compound was tested for the displacement of [3H]mepyramine from Histamine H1 receptor by competition binding assay.
Here the recorded K0.5 is given for each entry.
MEASURED_METRIC: K0.5 (nM)

compound="CN(C)C1Cc2ccccc2C(C)(c2ccccc2)C1 (stereo in doubt; 14)" unit_of_measure=nM value_modifier== reported_measurement=40
compound="CN(C)C1Cc2ccccc2C(c2ccccc2Cl)C1 (stereo not given)" unit_of_measure=nM value_modifier== reported_measurement=42.7
compound="CN(C)C1Cc2ccccc2C(c2ccccc2)C1 (stereo in doubt; 1b)" unit_of_measure=nM value_modifier== reported_measurement=19.1
compound=CC(C)(C)[C@]1(O)CCN2C[C@H]3c4ccccc4CCc4cccc(c43)[C@@H]2C1 unit_of_measure=nM value_modifier== reported_measurement=405
compound="CN(C)C1CCc2ccccc2C1c1ccccc1 (stereo in doubt; 8)" unit_of_measure=nM value_modifier=> reported_measurement=2000
